# System: NK-92 (IL-2 2.5 ng/mL)
# measurement_protocol: percent inhibition of viability; higher = more inhibition;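 note: normalised to DMSO-only wells as negative and benzethonium chloride as positive control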
# experimental_context: 72 h; 100 nM
reported_property: percent inhibition of viability (%)
Numbers only, in %.

Examples from the recorded data:
* Cc1cccc(-c2nn3c(c2-c2ccnc4ccc(C(N)=O)cc24)CCC3)n1 [Galunisertib] (max concentration tested 1000 nM) | -11.1
* CC[C@]1(O)C[C@H]2CN(CCc3c([nH]c4ccccc34)[C@@](C(=O)OC)(c3cc4c(cc3OC)N(C=O)[C@H]3[C@@](O)(C(=O)OC)[C@H](OC(C)=O)[C@]5(CC)C=CCN6CC[C@]43[C@@H]65)C2)C1 [Vincristine] (max concentration tested 1000 nM) | 101
* C=CCn1c(=O)c2cnc(Nc3ccc(N4CCN(C)CC4)cc3)nc2n1-c1cccc(C(C)(C)O)n1 [MK1775] (max concentration tested 10000 nM) | 53.5
* Cn1ncnc1[C@H]1c2n[nH]c(=O)c3cc(F)cc(c23)N[C@@H]1c1ccc(F)cc1 [Talazoparib] (max concentration tested 1000 nM) | 36.7
* CN[C@@H](C)C(=O)N[C@H]1CN(C(=O)CC(C)C)CC[C@H]2CC[C@@H](C(=O)NC(c3ccccc3)c3ccccc3)N2C1=O [AT-406] (max concentration tested 10000 nM) | 3.03

List reported percent inhibition of viability for each of these compounds:
1. CO[C@@H](C(=O)N1Cc2[nH]nc(NC(=O)c3ccc(N4CCN(C)CC4)cc3)c2C1)c1ccccc1 [Danusertib] (max concentration tested 10000 nM)
2. CC(C)(C)NC(=O)[C@H]1CC[C@H]2[C@@H]3CC[C@H]4NC(=O)C=C[C@]4(C)[C@H]3CC[C@]12C [Finasteride] (max concentration tested 10000 nM)
3. CC[C@H](CC#N)OC(=O)N[C@@H](C)c1cccc(NC(=O)Nc2ccc(-c3cnco3)c(OC)c2)c1 [AVN944] (max concentration tested 10000 nM)
4. Oc1nc(-c2ccc(C(F)(F)F)cc2)nc2c1CSCC2 [XAV-939] (max concentration tested 10000 nM)

15.1
0.46
21.9
17.2

List reported percent inhibition of viability for each of these compounds:
1. COc1cc(OC)c(/C=C/S(=O)(=O)Cc2ccc(OC)c(NCC(=O)O)c2)c(OC)c1 [Rigosertib] (max concentration tested 10000 nM)
2. O=C(O)c1ccc(-c2c[nH]c3ncc(-c4ccccc4)cc23)cc1C1CCCC1 (max concentration tested 10000 nM)

1: 77.7; 2: -14.8

====

Could you please report measured percent inhibition of viability for the items listed next?
# System: KHYG-1 (IL-2 2.5 ng/mL)
# measurement_protocol: percent inhibition of viability; higher = more inhibition
# experimental_context: 72 h; 1000 nM

* CO[C@@H](C(=O)N1Cc2[nH]nc(NC(=O)c3ccc(N4CCN(C)CC4)cc3)c2C1)c1ccccc1 [Danusertib] (max concentration tested 10000 nM) | 66.7%

List reported percent inhibition of viability for each of these compounds:
1. Cc1c(N)nc([C@H](CC(N)=O)NC[C@H](N)C(N)=O)nc1C(=O)N[C@H](C(=O)N[C@H](C)[C@@H](O)[C@H](C)C(=O)N[C@H](C(=O)NCCc1nc(-c2nc(C(=O)NCCC[S+](C)C)cs2)cs1)[C@@H](C)O)[C@@H](OC1OC(CO)C(O)C(O)C1OC1OC(CO)C(O)C(OC(N)=O)C1O)c1cnc[nH]1 (stereo partly specified) [Bleomycin] (max concentration tested 10000 nM)
2. COc1cc(OC)c(/C=C/S(=O)(=O)Cc2ccc(OC)c(NCC(=O)O)c2)c(OC)c1 [Rigosertib] (max concentration tested 10000 nM)
3. C[C@]12O[C@H](C[C@]1(O)CO)n1c3ccccc3c3c4c(c5c6ccccc6n2c5c31)CNC4=O [Lestaurtinib] (max concentration tested 1000 nM)
4. Cn1c(CCCC(=O)O)nc2cc(N(CCCl)CCCl)ccc21 [Bendamustine] (max concentration tested 10000 nM)
5. Cc1ccc(C(=O)Nc2ccc(CN3CCN(C)CC3)c(C(F)(F)F)c2)cc1C#Cc1cnc2cccnn12 [Ponatinib] (max concentration tested 1000 nM)

7.38%
102%
98.2%
2.21%
65.1%

List reported percent inhibition of viability for each of these compounds:
1. CC/C(=C(\c1ccccc1)c1ccc(OCCN(C)C)cc1)c1ccccc1 [Tamoxifen] (max concentration tested 10000 nM)
2. Cc1cc2c(F)c(Oc3ncnn4cc(OC[C@@H](C)O)c(C)c34)ccc2[nH]1 [Brivanib] (max concentration tested 1000 nM)
3. O=C(NC[C@H](O)CO)c1ccncc1Nc1ccc(I)cc1F [Pimasertib] (max concentration tested 10000 nM)
4. CCN(CC)CCOc1ccc(C(=C(Cl)c2ccccc2)c2ccccc2)cc1 [Clomifene] (max concentration tested 10000 nM)
5. COC(=O)N[C@@H](C)CNc1nccc(-c2cn(C(C)C)nc2-c2cc(Cl)cc(NS(C)(=O)=O)c2F)n1 [Encorafenib] (max concentration tested 1000 nM)
6. Cn1c(Nc2ccc(C(F)(F)F)cc2)nc2cc(Oc3ccnc(-c4ncc(C(F)(F)F)[nH]4)c3)ccc21 [RAF265] (max concentration tested 1000 nM)

["13.7%", "-5.25%", "59.1%", "8.03%", "36%", "34.9%"]

List reported percent inhibition of viability for each of these compounds:
1. COc1cc(CCc2cc(NC(=O)c3ccc(N4CC(C)NC(C)C4)cc3)n[nH]2)cc(OC)c1 (stereo unspecified) [AZD4547] (max concentration tested 1000 nM)
2. NC(=O)c1cccc(-c2cccc(OC(=O)NC3CCCCC3)c2)c1 [URB597] (max concentration tested 1000 nM)
3. CC1(C)CCC(c2ccc(Cl)cc2)=C(CN2CCN(c3ccc(C(=O)NS(=O)(=O)c4ccc(N[C@H](CCN5CCOCC5)CSc5ccccc5)c(S(=O)(=O)C(F)(F)F)c4)cc3)CC2)C1 [Navitoclax] (max concentration tested 10000 nM)
4. Cc1c(CN2CCN(C(=O)[C@H](C)O)CC2)sc2c(N3CCOCC3)nc(-c3cnc(N)nc3)nc12 [Apitolisib] (max concentration tested 10000 nM)
5. CS(=O)(=O)N1CCN(Cc2cc3nc(-c4cccc5[nH]ncc45)nc(N4CCOCC4)c3s2)CC1 [Pictilisib] (max concentration tested 10000 nM)
6. Cc1cccc(-c2nn3c(c2-c2ccnc4ccc(C(N)=O)cc24)CCC3)n1 [Galunisertib] (max concentration tested 1000 nM)
7. COc1cc([C@@H]2c3cc4c(cc3[C@@H](O[C@@H]3O[C@@H]5CO[C@@H](C)O[C@H]5[C@H](O)[C@H]3O)[C@H]3COC(=O)[C@H]23)OCO4)cc(OC)c1O [Etoposide] (max concentration tested 10000 nM)

["6.6%", "7.66%", "102%", "18%", "9.17%", "-1.95%", "87.1%"]

List reported percent inhibition of viability for each of these compounds:
1. CC(C)[C@H](C(=O)Nc1ccc(C(=O)NO)cc1)c1ccccc1 [AR-42] (max concentration tested 10000 nM)
2. N#CCNC(=O)c1ccc(-c2ccnc(Nc3ccc(N4CCOCC4)cc3)n2)cc1 [Momelotinib] (max concentration tested 10000 nM)

1: 104%; 2: 103%
